measured.target: engineered WW2_RW domain of WWOX (E66R/Y85W double-mutant of WW2 domain) (human, UniProt Q9NZC7 57-91, E66R | Y85W)
Sequence (Q9NZC7 57-91 E66R/Y85W): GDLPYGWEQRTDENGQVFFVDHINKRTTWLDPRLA
assay.text: ITC
pKd: −log10 of the molar value.
Reported pKd by item:
quantity.kind: pKd

• PGTPPPPYTVAP [WBP1_PY2 peptide (12-mer spanning the PY2 PPXY motif of human WBP1)] = 3.91
• VQPPPPPYPGPM [WBP2_PY2 peptide (12-mer spanning the PY2 PPXY motif of human WBP2)] = 4.16
• STFKPPAYEDVV [WBP1_PY1 peptide (12-mer spanning the PY1 PPXY motif of human WBP1)] = 4.10
